System: Caco-2 cells
Test: MTT cytotoxicity assay in undifferentiated Caco-2 cells
Format: cell-based, human
Conditions: 72 h incubation, read-out: IC50 72 h
measurement_type: IC50 (µM)
Note: unit µM is implicit; provide only the numeric part.

O=S(=O)(NC(=S)[S][Au][PH](c1ccccc1)(c1ccccc1)c1ccccc1)c1ccccc1 [Complex 1, [Au(S2CNHSO2C6H5)(PPh3)]]    1.14

Then this compound:
[Q] Suppose we examine the compound C#CCn1ccn(Cc2ccccc2)[c]1=[Au-].O=S(=O)(NC(=S)[S-])c1ccccc1 [Complex 9, [Au(S2CNHSO2C6H5)(IBnPropargyl)]] ; what IC50 value has been reported?
[A] 8.56

----------
Test: n-octanol-water distribution coefficient, shake-flask method
Assay type: physicochemical
Conditions: n-octanol/buffered saline pH 7.4, shake-flask
measurement_type: Log P7.4
# answer = number (no unit)

Known Log P7.4 results, listed for orientation:
C#CCn1ccn(Cc2ccccc2)[c]1=[Au-].O=S(=O)(NC(=S)[S-])c1ccccc1 [Complex 9, [Au(S2CNHSO2C6H5)(IBnPropargyl)]]    0.42
Cc1ccc(S(=O)(=O)NC(=S)[S][Au][PH](c2cccc(S(=O)(=O)[O-])c2)(c2cccc(S(=O)(=O)[O-])c2)c2cccc(S(=O)(=O)[O-])c2)cc1.[Na+].[Na+].[Na+] [Complex 5, [Au(S2CNHSO2-p-Me-C6H4)(TPPTS)]]    −0.78
C#CCn1ccn(C)[c]1=[Au-].O=S(=O)(NC(=S)[S-])c1ccccc1 [Complex 7, [Au(S2CNHSO2C6H5)(IMePropargyl)]]    0.35

Then this compound:
[Q] Suppose we examine the compound O=S(=O)(NC(=S)[S][Au][PH](c1ccccc1)(c1ccccc1)c1ccccc1)c1ccccc1 [Complex 1, [Au(S2CNHSO2C6H5)(PPh3)]] ; what Log P7.4 value has been reported?
[A] 0.75

----------
System: Caco-2 cells
Assay: MTT cytotoxicity assay in undifferentiated Caco-2 cells
Type: cell-based, human
Settings: 24 h incubation, read-out: IC50 24 h
Listed here: items and their measured IC50.
Note: unit µM is implicit; provide only the numeric part.

C#CCn1ccn(Cc2ccccc2)[c]1=[Au-].O=S(=O)(NC(=S)[S-])c1ccccc1 [Complex 9, [Au(S2CNHSO2C6H5)(IBnPropargyl)]]    31.2

Then this compound:
[Q] Suppose we examine the compound O=S(=O)(NC(=S)[S][Au][PH](c1ccccc1)(c1ccccc1)c1ccccc1)c1ccccc1 [Complex 1, [Au(S2CNHSO2C6H5)(PPh3)]] ; what IC50 value has been reported?
[A] 1.92
